# Experiment summary: Intrinsic clearance in dog hepatocytes assessed per million cells
# Type: ADME, cell-based, Canis lupus familiaris, Hepatocyte
# Settings: read-out: CLH
Measurement name: hepatocyte CLint (µL/min/1e6 cells)

1: C[C@@H]1Cc2c(ccc3[nH]ncc23)[C@@H](c2c(F)cc(/C=C/C(=O)O)cc2F)N1CC(C)(C)F
2: COc1cc(/C=C/C(=O)O)ccc1[C@@H]1c2ccc3[nH]ncc3c2C[C@@H](C)N1CC(C)(F)F
input: In the pair 1 and 2 , the larger recorded hepatocyte CLint belongs to which? Lab note: record the label of whichever item you select.
output: 1

---

# Experiment summary: Half life in dog at 0.5 mg/kg, iv or 1 mg/kg, po
# Format: ADME, organism-based, Canis lupus familiaris
# Settings: in vivo
Measurement name: half-life (min)

[[record]]
query_smiles = "C[C@@H]1Cc2c(ccc3[nH]ncc23)[C@@H](c2c(F)cc(/C=C/C(=O)O)cc2F)N1CC(C)(C)F"
measurement_name = "half-life"
unit_text = "min"
test_result = 366

[[record]]
query_smiles = "COc1cc(/C=C/C(=O)O)ccc1[C@@H]1c2ccc3[nH]ncc3c2C[C@@H](C)N1CC(C)(F)F"
measurement_name = "half-life"
unit_text = "min"
test_result = 408

[[record]]
query_smiles = "C[C@@H]1Cc2c(ccc3[nH]ncc23)[C@@H](c2c(F)cc(/C=C/C(=O)O)cc2F)N1CC(C)(F)F"
measurement_name = "half-life"
unit_text = "min"
test_result = 288


---

# Assayed system: Estrogen receptor (Homo sapiens)
# Sequence (P03372 whole entry, the tested form may be a part): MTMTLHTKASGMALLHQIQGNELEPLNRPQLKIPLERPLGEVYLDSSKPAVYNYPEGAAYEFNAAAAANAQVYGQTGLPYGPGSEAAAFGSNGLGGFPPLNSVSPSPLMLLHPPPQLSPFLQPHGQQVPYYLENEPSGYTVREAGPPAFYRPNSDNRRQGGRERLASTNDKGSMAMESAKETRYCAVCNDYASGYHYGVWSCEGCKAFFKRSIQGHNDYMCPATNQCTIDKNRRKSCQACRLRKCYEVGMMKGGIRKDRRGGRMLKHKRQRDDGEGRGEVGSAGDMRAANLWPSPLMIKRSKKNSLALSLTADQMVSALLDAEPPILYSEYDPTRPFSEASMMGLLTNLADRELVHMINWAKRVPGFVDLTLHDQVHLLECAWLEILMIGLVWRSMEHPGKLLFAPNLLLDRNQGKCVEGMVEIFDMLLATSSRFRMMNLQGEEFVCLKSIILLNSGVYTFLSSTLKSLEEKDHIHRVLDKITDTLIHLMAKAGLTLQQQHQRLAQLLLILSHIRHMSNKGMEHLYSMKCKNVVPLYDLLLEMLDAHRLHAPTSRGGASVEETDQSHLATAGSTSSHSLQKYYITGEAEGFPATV
# Experiment summary: Binding affinity to recombinant human GST-tagged ERalpha LBD expressed in baculovirus-infected insect cells by lantha screen assay
pIC50: −log10 of the molar value.
Measurement name: pIC50

Here are 6 molecules together with their reported answers.
[[record]]
molecule = "COc1cc(/C=C/C(=O)O)ccc1[C@@H]1c2ccc3[nH]ncc3c2C[C@@H](C)N1CC(C)(C)F"
assayed_system = "Estrogen receptor (Homo sapiens)"
test_result = 8.80

[[record]]
molecule = "C[C@@H]1Cc2c(ccc3[nH]ncc23)[C@@H](c2ccc(/C=C/C(=O)O)cc2)N1CC(C)(C)F"
assayed_system = "Estrogen receptor (Homo sapiens)"
test_result = 8.80

[[record]]
molecule = "CC(C)CN1[C@H](c2c(F)cc(/C=C/C(=O)O)cc2F)c2ccc3[nH]ncc3c2C[C@H]1C"
assayed_system = "Estrogen receptor (Homo sapiens)"
test_result = 8.90

[[record]]
molecule = "C[C@@H]1Cc2c(ccc3[nH]ncc23)[C@@](C)(c2c(F)cc(/C=C/C(=O)O)cc2F)N1CC(C)(C)F"
assayed_system = "Estrogen receptor (Homo sapiens)"
test_result = 9.40

[[record]]
molecule = "CC(C)CN1[C@H](c2ccc(/C=C/C(=O)O)cc2)c2ccc3[nH]ncc3c2C[C@H]1C"
assayed_system = "Estrogen receptor (Homo sapiens)"
test_result = 8.00

[[record]]
molecule = "COc1c([C@@H]2c3ccc4[nH]ncc4c3C[C@@H](C)N2CC(C)(F)F)ccc(/C=C/C(=O)O)c1F"
assayed_system = "Estrogen receptor (Homo sapiens)"
test_result = 8.90


1: COc1cc(/C=C/C(=O)O)cc(F)c1[C@@H]1c2ccc3[nH]ncc3c2C[C@@H](C)N1CC(C)(F)F
2: CC(C)CN1CCc2c(ccc3[nH]ccc23)C1c1ccc(/C=C/C(=O)O)cc1 (centres undefined)
input: Select the item with the higher value of pIC50 from the options 1 and 2 listed. Answer with the label corresponding to your selection.
output: 1
(1: 9.50, 2: 6.50)

These entries and their values trace back to ChEMBL document CHEMBL4368914.
